Recorded composite z-score for the following molecules
Target Or Test System: Torsin-1A-interacting protein 1 (Homo sapiens) (UniProt Q5JTV8)
Sequence (Q5JTV8 whole entry, looked up): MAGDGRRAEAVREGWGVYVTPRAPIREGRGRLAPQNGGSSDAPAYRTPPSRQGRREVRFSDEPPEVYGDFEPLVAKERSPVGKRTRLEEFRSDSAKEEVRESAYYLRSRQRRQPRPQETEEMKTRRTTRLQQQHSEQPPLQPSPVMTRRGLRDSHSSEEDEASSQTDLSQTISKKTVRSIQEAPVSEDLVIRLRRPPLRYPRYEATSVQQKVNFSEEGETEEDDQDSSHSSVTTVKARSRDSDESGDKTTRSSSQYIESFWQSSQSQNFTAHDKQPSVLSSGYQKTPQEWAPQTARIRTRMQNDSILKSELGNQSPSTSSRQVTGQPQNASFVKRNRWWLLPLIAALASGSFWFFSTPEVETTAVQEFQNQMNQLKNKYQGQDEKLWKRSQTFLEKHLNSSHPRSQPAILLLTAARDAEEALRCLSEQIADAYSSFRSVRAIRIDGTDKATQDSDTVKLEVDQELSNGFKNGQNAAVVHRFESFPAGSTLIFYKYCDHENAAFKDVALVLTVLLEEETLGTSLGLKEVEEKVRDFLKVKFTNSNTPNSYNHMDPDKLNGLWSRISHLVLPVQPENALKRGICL
Run Description: LAP1 binders from COS7 cell lysate, primary screen, small-molecule microarray, 635/667 nm fluorescence (AID 1116)
Measurement Parameters: COS7-hLAP1 lysate binding, 635 nm fluorescence, higher = more signal
Enter the number alone.

Molecule	composite z-score
CC(=O)NCCCC[C@@H]1NC(=O)[C@@H]2C[C@H](C(=O)NCc3ccc(F)cc3)[C@H](c3cccc(OCCO)c3)N2C1=O	0.436

The observed composite z-score for "CC(C)(C)OC(=O)CC[C@]1(C(=O)NCCN2CCOCC2)N=C(c2ccc(OCCCO)cc2)O[C@H]1c1ccccc1CN=[N+]=[N-]" when tested with Torsin-1A-interacting protein 1 (Homo sapiens) (UniProt Q5JTV8) stands at 2.12

Form: item "C=CCOC(=O)[C@@H]1[C@H]2C(=O)O[C@H](c3ccccc3)[C@H](c3ccccc3)N2[C@H](c2ccc(OCCOC(=O)[C@H]3C[C@H]4C(=O)N5CCC[C@H]5C(=O)N4[C@H]3c3ccc(O)cc3)cc2)[C@@]12C(=O)Nc1ccccc12" ; test system Torsin-1A-interacting protein 1 (Homo sapiens) (UniProt Q5JTV8); composite z-score: 0.87

So the reported composite z-score for C#CCNC(/C=C/c1ccccc1)CO (stereo not drawn) , on Torsin-1A-interacting protein 1 (Homo sapiens) (UniProt Q5JTV8), turned out to be 0.296
